Reference for the values: patent US8834843B2

experiment: Biodistribution in sham-operated rats with and without excess cold compound; type: in vivo; settings: male, Sprague Dawley, rat, bile and urine, iv, total radioactivity, 15 days post-op, 1 hour post-injection, no excess
Numbered stars: 1 amine (or outer) side, 2 acyl side, 3 side chain; on linkers, the order of the positions; unused ones are H or OH. Bridge positions count the residues as written; N and C are the ends. Side chains are listed from the residue outwards. Peptide text beside a SMILES is read from it. * marks the point of attachment. X1 = C/C(=N\O)C(C)(C)NCCC(CCNC(C)(C)/C(C)=N/O)CCN*; Glutaryl = O=C(CCCC(=O)[*:2])[*:1]; X2 = NC(=O)COCC(=O)NCCOCCOCCOCCN*
quantity: dose excreted at 1 h (%)

molecule: C/C(=N\O)C(C)(C)NCCC(CCNC(=O)CCCC(=O)NCCCC[C@@H]1NC(=O)CSC[C@@H](C(=O)NCCOCCOCCOCCNC(=O)COCC(N)=O)NC(=O)[C@H](Cc2ccccc2)NC(=O)[C@@H]2CSSC[C@H](NC1=O)C(=O)N[C@@H](CCCNC(=N)N)C(=O)NCC(=O)N[C@@H](CC(=O)O)C(=O)N2)CCNC(C)(C)/C(C)=N/O (stereo partly shown) [Compound 8] ({CH2CO}-K([Glutaryl-X1])CRGDCFC-X2; disulfide 2-6; thioether N-8)
value-observed: 44.6

* * *

Assay: Biodistribution in BDL rats with and without excess cold compound
Type: in vivo
Settings: male, Sprague Dawley, rat, bile and urine, iv, 3 MBq, total radioactivity, BDL rats, 15 days post-op, 1 hour post-injection, 100-fold excess cold Compound 8
Method: On the appropriate day post surgery BDL and sham animals were removed and put under isoflurane anaesthesia, then each animal was injected with 0.3 ml intravenously (i.v.) via tail vein (˜3MBq). At the appropriate time point post-injection of the test item, each animal was re-anaesthetised with isoflurane, sacrificed by cervical dislocation weighed and the weight recorded via a barcode scanning system. […]
Numbered stars: 1 amine (or outer) side, 2 acyl side, 3 side chain; on linkers, the order of the positions; unused ones are H or OH. Bridge positions count the residues as written; N and C are the ends. Side chains are listed from the residue outwards. Peptide text beside a SMILES is read from it. * marks the point of attachment. X1 = C/C(=N\O)C(C)(C)NCCC(CCNC(C)(C)/C(C)=N/O)CCN*; Glutaryl = O=C(CCCC(=O)[*:2])[*:1]; X2 = NC(=O)COCC(=O)NCCOCCOCCOCCN*
quantity: dose excreted at 1 h (%)

compound: C/C(=N\O)C(C)(C)NCCC(CCNC(=O)CCCC(=O)NCCCC[C@@H]1NC(=O)CSC[C@@H](C(=O)NCCOCCOCCOCCNC(=O)COCC(N)=O)NC(=O)[C@H](Cc2ccccc2)NC(=O)[C@@H]2CSSC[C@H](NC1=O)C(=O)N[C@@H](CCCNC(=N)N)C(=O)NCC(=O)N[C@@H](CC(=O)O)C(=O)N2)CCNC(C)(C)/C(C)=N/O (stereo partly shown) [Compound 8] ({CH2CO}-K([Glutaryl-X1])CRGDCFC-X2; disulfide 2-6; thioether N-8)
quantity: dose excreted at 1 h
value-observed: 38.3

* * *

test: Biodistribution in sham-operated rats with and without excess cold compound; assay type: in vivo; conditions: male, Sprague Dawley, rat, muscle, iv, 3 MBq, total radioactivity, 15 days post-op, 1 hour post-injection, +100-fold excess cold Compound 8, read-out: Activity in Muscle, Mean
Numbered stars: 1 amine (or outer) side, 2 acyl side, 3 side chain; on linkers, the order of the positions; unused ones are H or OH. Bridge positions count the residues as written; N and C are the ends. Side chains are listed from the residue outwards. Peptide text beside a SMILES is read from it. * marks the point of attachment. X1 = C/C(=N\O)C(C)(C)NCCC(CCNC(C)(C)/C(C)=N/O)CCN*; Glutaryl = O=C(CCCC(=O)[*:2])[*:1]; X2 = NC(=O)COCC(=O)NCCOCCOCCOCCN*
quantity: tissue uptake dose at 1 h

compound: C/C(=N\O)C(C)(C)NCCC(CCNC(=O)CCCC(=O)NCCCC[C@@H]1NC(=O)CSC[C@@H](C(=O)NCCOCCOCCOCCNC(=O)COCC(N)=O)NC(=O)[C@H](Cc2ccccc2)NC(=O)[C@@H]2CSSC[C@H](NC1=O)C(=O)N[C@@H](CCCNC(=N)N)C(=O)NCC(=O)N[C@@H](CC(=O)O)C(=O)N2)CCNC(C)(C)/C(C)=N/O (stereo partly shown) [Compound 8] ({CH2CO}-K([Glutaryl-X1])CRGDCFC-X2; disulfide 2-6; thioether N-8)
quantity: tissue uptake dose at 1 h
value-observed: 10.9 %ID
